system under test: mammalian expressed RBD (mRBD) of SARS-CoV-2 spike (SARS-CoV-2), P0DTC2
assay overview: SPR
Below, each of the binders is paired with its reported Kd value.
Write down the value, and be sure its unit follows.

binder	Kd
DKEWILQKIFEIMRLLDELADAEASMRVSDLIYEFMKK (designed binder, modifications not checked) [SIH-13]	1.6 nM
DKEWILQKIFEIMRLLDELADAEASMRVSDLIYEFMKK (designed binder, modifications not checked) [SIH-7]	2.9 nM

(Q) Request the reported Kd associated with DKEWILQKIYEIMRLLDELADAEASMRVSDLIYEFMKK (designed binder, modifications not checked) [SIH-11]
(A) 1.3 nM
